All values here come from PubChem BioAssay (NCI).

- Tested on: HS 578T breast
- experiment_description: NCI-60 one-dose screen, 48 h
- condition_set: 10 µM
About 83,000 compounds went through this panel and 20% of them were active in at least one assay; those are over-represented in the sample as a whole. The source made the active and inactive calls. The calls were made as follows: active = growth percent below 10; inactive = the rest.
Outcomes: active, inactive

>  <compound>
O=S(=O)(O)c1ccc(Cl)c(Cl)c1

>  <target_of_assay>
HS 578T breast

>  <label_value>
inactive

$$$$
>  <compound>
COc1cc(C2NC(=O)C(C#N)=C(Nc3cccc(C)c3)S2)ccc1O (configuration not stated)

>  <target_of_assay>
HS 578T breast

>  <label_value>
inactive

$$$$
>  <compound>
N#Cc1ccc(NC(=O)Nc2cccc(C#N)c2)cc1

>  <target_of_assay>
HS 578T breast

>  <label_value>
inactive

$$$$
>  <compound>
Cc1ccc(S(=O)(=O)O)c(C)c1

>  <target_of_assay>
HS 578T breast

>  <label_value>
inactive

$$$$
>  <compound>
c1ccc2c(N3CCCCC3)ncnc2c1

>  <target_of_assay>
HS 578T breast

>  <label_value>
inactive

$$$$
>  <compound>
O=S(=O)(Cc1ccccc1)c1ccccc1

>  <target_of_assay>
HS 578T breast

>  <label_value>
inactive

$$$$
>  <compound>
O=S(=O)(O)CC(O)CN1CCN(CCO)CC1 (configuration not stated)

>  <target_of_assay>
HS 578T breast

>  <label_value>
inactive

$$$$
>  <compound>
COc1cccc(Sc2ccc([N+](=O)[O-])c3no[n+]([O-])c23)c1

>  <target_of_assay>
HS 578T breast

>  <label_value>
inactive

$$$$
>  <compound>
CCOC(=O)Nc1nn[nH]n1

>  <target_of_assay>
HS 578T breast

>  <label_value>
inactive

$$$$
>  <compound>
O=C(O)c1cccc([N+](=O)[O-])c1O

>  <target_of_assay>
HS 578T breast

>  <label_value>
inactive

$$$$
>  <compound>
CC(C)=NNC(N)=S

>  <target_of_assay>
HS 578T breast

>  <label_value>
inactive

$$$$
>  <compound>
Cc1ccc(C(=O)c2ccccc2)c(C)c1

>  <target_of_assay>
HS 578T breast

>  <label_value>
inactive

$$$$
>  <compound>
C/C(=N\NC(=O)c1ccccc1N)c1ccccc1O

>  <target_of_assay>
HS 578T breast

>  <label_value>
inactive

$$$$
>  <compound>
CCCC[P+](c1ccccc1)(c1ccccc1)c1ccccc1

>  <target_of_assay>
HS 578T breast

>  <label_value>
inactive

$$$$
>  <compound>
COc1ccc2c(NCCCCCCCCNc3c4ccccc4nc4cc(OC)ccc34)c3ccccc3nc2c1

>  <target_of_assay>
HS 578T breast

>  <label_value>
active

$$$$
>  <compound>
O=C(O)C(O)c1ccccc1 (configuration not stated)

>  <target_of_assay>
HS 578T breast

>  <label_value>
inactive

$$$$
>  <compound>
Cc1c(O)cnc2nn(-c3ccccc3)c(=N)n12

>  <target_of_assay>
HS 578T breast

>  <label_value>
inactive

$$$$
>  <compound>
CCC(C)(C)C1CCC(O)CC1 (configuration not stated)

>  <target_of_assay>
HS 578T breast

>  <label_value>
inactive

$$$$
>  <compound>
CCCC1(c2ccccc2)NC(=O)NC1=O (configuration not stated)

>  <target_of_assay>
HS 578T breast

>  <label_value>
inactive

$$$$
>  <compound>
CC1(C)Nc2cccc3c(N=Nc4ccc(N=Nc5ccccc5)c5ccccc45)ccc(c23)N1

>  <target_of_assay>
HS 578T breast

>  <label_value>
inactive

$$$$
>  <compound>
COC1=CC(=O)c2nc(Cl)ccc2C1=O

>  <target_of_assay>
HS 578T breast

>  <label_value>
inactive

$$$$
>  <compound>
O=C(Cc1nc2ccc([N+](=O)[O-])cc2nc1CC(=O)c1ccccc1)c1ccccc1

>  <target_of_assay>
HS 578T breast

>  <label_value>
inactive

$$$$
>  <compound>
CC1(C(N)=O)CCC(C(=O)O)C1(C)C (configuration not stated)

>  <target_of_assay>
HS 578T breast

>  <label_value>
inactive

$$$$
>  <compound>
O=C(OCC(O)C1OC(c2ccccc2)OC(COC(=O)c2ccccc2)C1O)c1ccccc1 (configuration not stated)

>  <target_of_assay>
HS 578T breast

>  <label_value>
inactive

$$$$
>  <compound>
O=C(O)c1cccc([N+](=O)[O-])c1

>  <target_of_assay>
HS 578T breast

>  <label_value>
inactive

$$$$
>  <compound>
Cc1cc(O)ccc1O

>  <target_of_assay>
HS 578T breast

>  <label_value>
inactive

$$$$
>  <compound>
COC(=O)C(O)c1ccccc1 (configuration not stated)

>  <target_of_assay>
HS 578T breast

>  <label_value>
inactive

$$$$
